# Test system: Acinetobacter baumannii
# assay-remarks: Antimicrobial activity against Acinetobacter baumannii VT 126 by broth microdilution method
# Type: functional
quantity-kind: MIC
# do not omit the unit; it follows the number

Consider the worked cases shown below.
CO/N=C(\C(=O)N[C@@H]1C(=O)N2C(C(=O)O)=C(COC(C)=O)CS[C@H]12)c1csc(N)n1 [CEFOTAXIME] = 1.5 µg/mL
CO[C@H]1/C=C/O[C@@]2(C)Oc3c(C)c(O)c4c(O)c(c(/C=N/N5CCN(C)CC5)c(O)c4c3C2=O)NC(=O)/C(C)=C\C=C\[C@H](C)[C@H](O)[C@@H](C)[C@@H](O)[C@@H](C)[C@H](OC(C)=O)[C@@H]1C [RIFAMPIN] = 8 µg/mL
C[C@H]1COc2c(N3CCN(C)CC3)c(F)cc3c(=O)c(C(=O)O)cn1c23.C[C@H]1COc2c(N3CCN(C)CC3)c(F)cc3c(=O)c(C(=O)O)cn1c23.O [LEVOFLOXACIN] = 8 µg/mL

Now examine the next entry.
Identify measured MIC corresponding to CC1(C)S[C@@H]2[C@H](NC(=O)[C@H](N)c3ccccc3)C(=O)N2[C@H]1C(=O)O [AMPICILLIN]
50 µg/mL
